# protocolDescription: MTT cytotoxicity against human pulp cell (HPC)
# Type: cell-based
# conditionDescription: human, human pulp cells (HPC), non-malignant oral cells
Exercise: state measured CC50 at 48 h for each of the molecules provided.

Q: Could you share which CC50 at 48 h value was measured for COc1ccc(/C=C2\CNC/C(=C\c3ccc(O)c(CN4CCN(C)CC4)c3)C2=O)cc1OC [Compound 2f] ?
Result: 6.1 µM

Q: Try this molecule next: COc1ccc(/C=C2\CNC/C(=C\c3ccc(O)c(CN4CCCCC4)c3)C2=O)cc1OC [Compound 2d]
Result: < 1.6 µM

Q: Try this molecule next: COc1ccc(/C=C2\CNC/C(=C\c3ccc(O)c(CN4CCOCC4)c3)C2=O)cc1OC [Compound 2e]
Result: > 200 µM

Q: Try this molecule next: CN1CCN(Cc2cc(/C=C3\CNC/C(=C\c4ccccc4)C3=O)ccc2O)CC1 [Compound 3a]
Result: 2.6 µM

Q: Try this molecule next: COc1ccc(/C=C2\CNC/C(=C\c3ccc(O)c(CN4CCN(C)CC4)c3)C2=O)cc1 [Compound 3c]
Result: 2.8 µM

Q: Try this molecule next: COc1cccc2c1C(=O)c1c(O)c3c(c(O)c1C2=O)C[C@@](O)(C(=O)CO)C[C@@H]3O[C@H]1C[C@H](N)[C@H](O)[C@H](C)O1 [DXR, doxorubicin, reference compound]
Result: > 10 µM

Q: Try this molecule next: N[C@@H](Cc1ccc(N(CCCl)CCCl)cc1)C(=O)O [MPN, melphalan, reference compound]
Result: > 200 µM

---

# Test system: HSC-4 squamous cell carcinoma cells
# protocolDescription: MTT cytotoxicity against HSC-4 squamous cell carcinoma
# Assay type: cell-based, human
# conditionDescription: 48 h, MTT; read-out: HSC-4 CC50
experimentalEndpoint: CC50 (µM)
All answers are understood in µM, so give the number only.

Q: Could you share which CC50 value was measured for [NH2][Pt]([NH2])([Cl])[Cl] [CDDP, cisplatin, reference compound] ?
Result: 60.4

---

# System: Ca9-22, HSC-2, HSC-3, and HSC-4 squamous cell carcinoma cell lines
# protocolDescription: Average over Ca9-22, HSC-2, HSC-3 and HSC-4 OSCC cell lines
# Type: cell-based, human
# conditionDescription: Homo sapiens, average of four OSCC cell lines; read-out: Average CC50
// classify: if (CC50 < 1000 nM) MET else NOT MET

Q: Hello, is CC50 of the following compound strictly smaller than 1000 nM? CCN(CC)Cc1cc(C=C2CNCC(=Cc3ccc(OC)c(OC)c3)C2=O)ccc1O.Cl.Cl [Compound 2b]
Result: MET

Q: Try this compound next: COc1ccc(/C=C2\CNC/C(=C\c3ccc(O)c(CN4CCOCC4)c3)C2=O)cc1OC [Compound 2e]
Result: NOT MET

Q: Try this compound next: COc1ccc(/C=C2\CNC/C(=C\c3ccc(O)c(CN4CCN(C)CC4)c3)C2=O)cc1OC [Compound 2f]
Result: NOT MET

Q: Try this compound next: CN1CCN(Cc2cc(/C=C3\CNC/C(=C\c4ccc(F)cc4)C3=O)ccc2O)CC1 [Compound 3b]
Result: MET

Q: Try this compound next: COc1cccc2c1C(=O)c1c(O)c3c(c(O)c1C2=O)C[C@@](O)(C(=O)CO)C[C@@H]3O[C@H]1C[C@H](N)[C@H](O)[C@H](C)O1 [DXR, doxorubicin, reference compound]
Result: MET

Q: Try this compound next: COc1ccc(C=C2CNCC(=Cc3ccc(O)c(CN(C)C)c3)C2=O)cc1OC.Cl.Cl [Compound 2a]
Result: NOT MET

---

# protocolDescription: MTT cytotoxicity against human periodontal ligament fibroblast (HPLF)
# Format: cell-based
# conditionDescription: human, human periodontal ligament fibroblasts (HPLF), non-malignant oral cells
// classify: if (CC50 at 48 h < 6 µM) 1.0 else 0.0

Q: Hello, is CC50 at 48 h of the following compound strictly smaller than 6 µM? "CN1CCN(Cc2cc(/C=C3\CNC/C(=C\c4ccc([N+](=O)[O-])cc4)C3=O)ccc2O)CC1"
Result: 1.0

Q: Try this compound next: "CN1CCN(Cc2cc(/C=C3\CNC/C(=C\c4ccccc4)C3=O)ccc2O)CC1"
Result: 1.0

Q: Try this compound next: "COc1ccc(/C=C2\CNC/C(=C\c3ccc(O)c(CN4CCCC4)c3)C2=O)cc1OC"
Result: 0.0

Q: Try this compound next: "Cc1ccc(/C=C2\CNC/C(=C\c3ccc(O)c(CN4CCN(C)CC4)c3)C2=O)cc1"
Result: 0.0

Q: Try this compound next: "COc1ccc(/C=C2\CNC/C(=C\c3ccc(O)c(CN4CCN(C)CC4)c3)C2=O)cc1OC"
Result: 0.0

Q: Try this compound next: "COc1ccc(C=C2CNCC(=Cc3ccc(O)c(CN(C)C)c3)C2=O)cc1OC.Cl.Cl"
Result: 1.0

Q: Try this compound next: COc1cccc2c1C(=O)c1c(O)c3c(c(O)c1C2=O)C[C@@](O)(C(=O)CO)C[C@@H]3O[C@H]1C[C@H](N)[C@H](O)[C@H](C)O1 [DXR, doxorubicin, reference compound]
Result: 0.0

Q: Try this compound next: "COc1ccc(/C=C2\CNC/C(=C\c3ccc(O)c(CN4CCOCC4)c3)C2=O)cc1OC"
Result: 0.0

Q: Try this compound next: "CN1CCN(Cc2cc(/C=C3\CNC/C(=C\c4ccc(F)cc4)C3=O)ccc2O)CC1"
Result: 0.0

Q: Try this compound next: "COc1ccc(/C=C2\CNC/C(=C\c3ccc(O)c(CN4CCCCC4)c3)C2=O)cc1OC"
Result: 1.0

Q: Try this compound next: O=c1[nH]cc(F)c(=O)[nH]1 [Compound 5-FU, 5-fluorouracil, reference compound]
Result: 0.0

Q: Try this compound next: "CCN(CC)Cc1cc(C=C2CNCC(=Cc3ccc(OC)c(OC)c3)C2=O)ccc1O.Cl.Cl"
Result: 1.0

Q: Try this compound next: N[C@@H](Cc1ccc(N(CCCl)CCCl)cc1)C(=O)O [MPN, melphalan, reference compound]
Result: 0.0

Q: Try this compound next: "COc1ccc(/C=C2\CNC/C(=C\c3ccc(O)c(CN4CCN(C)CC4)c3)C2=O)cc1"
Result: 1.0

---

# protocolDescription: Average over HGF, HPLF and HPC non-malignant oral cells
# Assay type: cell-based, human
# conditionDescription: human, HPLF and HPC non-malignant oral cells (average), average of HGF
# Procedure: The method for evaluating 2a–f and 3a–e against human oral squamous cell carcinoma (OSCC) cell lines (Ca9-22, HSC-2, HSC-3, HSC-4) and human non-malignant oral cells [human gingival fibroblast (HGF), human periodontal ligament fibroblast (HPLF), and human pulp cell (HPC)] have been reported previously, except the length of time of this bioassay was extended from 24 h to 48 h. […]
experimentalEndpoint: CC50 at 48 h (µM)
All answers are understood in µM, so give the number only.

Q: Could you share which CC50 at 48 h value was measured for Cc1ccc(/C=C2\CNC/C(=C\c3ccc(O)c(CN4CCN(C)CC4)c3)C2=O)cc1 [Compound 3d] ?
Result: 10.2

Q: Try this compound next: CN1CCN(Cc2cc(/C=C3\CNC/C(=C\c4ccc(F)cc4)C3=O)ccc2O)CC1 [Compound 3b]
Result: 10.1

Q: Try this compound next: CN1CCN(Cc2cc(/C=C3\CNC/C(=C\c4ccccc4)C3=O)ccc2O)CC1 [Compound 3a]
Result: 5.83

Q: Try this compound next: CCN(CC)Cc1cc(C=C2CNCC(=Cc3ccc(OC)c(OC)c3)C2=O)ccc1O.Cl.Cl [Compound 2b]
Result: 7.03

Q: Try this compound next: COc1ccc(/C=C2\CNC/C(=C\c3ccc(O)c(CN4CCN(C)CC4)c3)C2=O)cc1OC [Compound 2f]
Result: 17.1

Q: Try this compound next: COc1ccc(C=C2CNCC(=Cc3ccc(O)c(CN(C)C)c3)C2=O)cc1OC.Cl.Cl [Compound 2a]
Result: 7.73

Q: Try this compound next: COc1ccc(/C=C2\CNC/C(=C\c3ccc(O)c(CN4CCN(C)CC4)c3)C2=O)cc1 [Compound 3c]
Result: 5.5

Q: Try this compound next: COc1ccc(/C=C2\CNC/C(=C\c3ccc(O)c(CN4CCCC4)c3)C2=O)cc1OC [Compound 2c]
Result: 53.6

Q: Try this compound next: CN1CCN(Cc2cc(/C=C3\CNC/C(=C\c4ccc([N+](=O)[O-])cc4)C3=O)ccc2O)CC1 [Compound 3e]
Result: 5.7

---

# Test system: HCT116 colon cancer cells
# protocolDescription: Cytotoxicity against HCT116 colon cancer cells
# Type: cell-based, human
# conditionDescription: Homo sapiens, HCT-116, 48 h, 48 h
Exercise: state measured pIC50 for each of the molecules provided.
# pIC50 is unitless: minus log10 of the molar concentration; print number only

Q: Could you share which pIC50 value was measured for "COc1ccc(C=C2CNCC(=Cc3ccc(O)c(CN(C)C)c3)C2=O)cc1OC.Cl.Cl" ?
Result: 5.76

Q: Try this molecule next: "COc1ccc(/C=C2\CNC/C(=C\c3ccc(O)c(CN4CCCC4)c3)C2=O)cc1OC"
Result: 5.46

Q: Try this molecule next: "COc1ccc(/C=C2\CNC/C(=C\c3ccc(O)c(CN4CCOCC4)c3)C2=O)cc1OC"
Result: 5.47

Q: Try this molecule next: "COc1ccc(/C=C2\CNC/C(=C\c3ccc(O)c(CN4CCN(C)CC4)c3)C2=O)cc1"
Result: 5.98
